test_system: BACE-2 (Homo sapiens, UniProt Q9Y5Z0)
Construct: Recombinant BACE-2 (extracellular domain, expressed in baculovirus and purified using standard methods)
Sequence (Q9Y5Z0 63-473 limits assumed): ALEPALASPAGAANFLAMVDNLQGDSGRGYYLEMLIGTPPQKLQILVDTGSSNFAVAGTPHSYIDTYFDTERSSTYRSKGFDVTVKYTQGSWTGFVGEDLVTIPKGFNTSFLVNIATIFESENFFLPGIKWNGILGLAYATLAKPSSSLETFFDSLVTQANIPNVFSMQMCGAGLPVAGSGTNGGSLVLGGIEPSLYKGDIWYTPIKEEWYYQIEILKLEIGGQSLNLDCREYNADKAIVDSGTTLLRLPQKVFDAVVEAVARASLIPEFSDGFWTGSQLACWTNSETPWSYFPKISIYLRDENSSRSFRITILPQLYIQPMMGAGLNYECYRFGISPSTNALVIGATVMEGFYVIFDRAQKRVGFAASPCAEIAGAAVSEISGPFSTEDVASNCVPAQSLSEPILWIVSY
assay: assay for inhibition of BACE-2
Structures can show the parent of a compound that is named as a salt.
measured_property: pIC50
Bear in mind: pIC50 is minus log10 of a mol/L concentration; give just that figure.

Request: // pIC50 lookup, key: NC1=N[C@@](c2cc(NC(=O)c3cnc(OCC(F)F)cn3)ccc2F)(C(F)F)COC1
Response: 5.74

Request: Then what about the compound CCc1nc(C(=O)Nc2cccc(C3(C(F)F)COCC(N)=N3)c2)co1 (centres unmarked) ?
Response: 5.99

Request: Then what about the compound Cc1cc(Br)cnc1C(=O)Nc1ccc(F)c(C2(C(F)F)CN(C(=O)C3CC3)CC(N)=N2)c1 (centres unmarked) ?
Response: 8.22

Request: Then what about the compound Cc1nc(C(=O)Nc2cccc(C3(C)COCC(N)=N3)c2)cs1 (centres unmarked) [Example 11, hydrochloride] ?
Response: 5.98

Request: Then what about the compound NC1=N[C@@](c2cc(NC(=O)c3ncc(Cl)cc3F)ccc2F)(C(F)F)COC1 ?
Response: 7.82

Request: Then what about the compound Cc1cc(C(F)F)cnc1C(=O)Nc1ccc(F)c([C@]2(C)CO[C@@](C)(C(F)(F)F)C(N)=N2)c1 [Example 241, hydrochloride] ?
Response: 8.10

Request: Then what about the compound CC1(c2cc(NC(=O)c3ccc(Br)cn3)ccc2F)N=C(N)COCC1(F)F (centres unmarked) ?
Response: 7.59
